Details: in n-propyl acetate, 318.15 K
measured property: solubility (mole fraction)
Give the value as a plain number.

q: Read the entry Cc1c(N)cccc1C(=O)O and write its reported solubility (mole fraction).
a: 0.00286

----------
Details: in isobutanol, 288.15 K
measured property: solubility (mole fraction)
Give the value as a plain number.

q: Read the entry Cc1c(N)cccc1C(=O)O and write its reported solubility (mole fraction).
a: 0.00112

----------
Settings: in n-propanol, 318.15 K
measured property: solubility (mole fraction)
Give the value as a plain number.

q: Read the entry Cc1c(N)cccc1C(=O)O and write its reported solubility (mole fraction).
a: 0.00824

----------
Settings: in ethanol, 293.15 K
measured property: solubility (mole fraction)
Give the value as a plain number.

q: Read the entry Cc1c(N)cccc1C(=O)O and write its reported solubility (mole fraction).
a: 0.00422
